Test system: feeder insects
Assay: Lutein and zeaxanthin in diet versus lutein and zeaxanthin in feeder insect
Details: 64.9 mg/kg lutein in diet
reportedMetric: Lutein in Feeder Insect (µg/kg dry matter)
Give bare numbers, in µg/kg dry matter.

### Prompt Endpoint output: Lutein in Feeder Insect of CC1=C[C@H](O)CC(C)(C)[C@H]1/C=C/C(C)=C/C=C/C(C)=C/C=C/C=C(C)/C=C/C=C(C)/C=C/C1=C(C)C[C@@H](O)CC1(C)C [Lutein, lutein] . Value?
### Response 800

* * *

Test: Lutein and zeaxanthin in diet versus lutein and zeaxanthin in feeder insect
Details: cricket, whole feeder insect (dry matter), oral, 193.6 mg/kg diet
reportedMetric: concentration at 21 days (ng/g)
One number for each entry, in ng/g.

### Prompt Endpoint output: concentration at 21 days of CC1=C[C@H](O)CC(C)(C)[C@H]1/C=C/C(C)=C/C=C/C(C)=C/C=C/C=C(C)/C=C/C=C(C)/C=C/C1=C(C)C[C@@H](O)CC1(C)C [Lutein, lutein] . Value?
### Response 11300

* * *

Experiment: in vivo
Conditions: cricket, 15.3 mg/kg diet, Beta-carotene in Feeder Insect, 15.3 mg/kg beta-carotene in diet
reportedMetric: concentration at 21 days (ng/g)
Answers are plain numbers, in ng/g.

### Prompt Endpoint output: concentration at 21 days of CC1=C(/C=C/C(C)=C/C=C/C(C)=C/C=C/C=C(C)/C=C/C=C(C)/C=C/C2=C(C)CCCC2(C)C)C(C)(C)CCC1 [Beta-carotene, beta-carotene] . Value?
### Response 3230

* * *

Assay: Lutein and zeaxanthin in diet versus lutein and zeaxanthin in feeder insect
Conditions: cricket, whole feeder insect (dry matter), oral, 11.6 mg/kg diet
reportedMetric: concentration at 21 days (ng/g)
Give bare numbers, in ng/g.

### Prompt Endpoint output: concentration at 21 days of CC1=C[C@H](O)CC(C)(C)[C@H]1/C=C/C(C)=C/C=C/C(C)=C/C=C/C=C(C)/C=C/C=C(C)/C=C/C1=C(C)C[C@@H](O)CC1(C)C . Value?
### Response 33

* * *

Experiment: in vivo
Settings: cricket, 3 mg beta-carotene per kg diet, beta-carotene in feeder insect by regression FI=219.2×D-2.92, 3 milligrams of beta-carotene per kilogram of feeder insect diet
reportedMetric: concentration at 21 days (ng/g)
Give bare numbers, in ng/g.

### Prompt Endpoint output: concentration at 21 days of CC1=C(/C=C/C(C)=C/C=C/C(C)=C/C=C/C=C(C)/C=C/C=C(C)/C=C/C2=C(C)CCCC2(C)C)C(C)(C)CCC1 . Value?
### Response 655

* * *

Test: in vivo
Conditions: cricket, 0.3 mg/kg diet, Beta-carotene in Feeder Insect, 0.3 mg/kg beta-carotene in diet
reportedMetric: concentration at 21 days (ng/g)
Give bare numbers, in ng/g.

### Prompt Endpoint output: concentration at 21 days of CC1=C(/C=C/C(C)=C/C=C/C(C)=C/C=C/C=C(C)/C=C/C=C(C)/C=C/C2=C(C)CCCC2(C)C)C(C)(C)CCC1 . Value?
### Response 33.3

* * *

Test: in vivo
Settings: cricket, beta-carotene in feeder insect by regression from Table C, diet with approximately 0.3 to approximately 1,496.4 milligrams of beta-carotene per kilogram
reportedMetric: concentration at 21 days

### Prompt Endpoint output: concentration at 21 days of CC1=C(/C=C/C(C)=C/C=C/C(C)=C/C=C/C=C(C)/C=C/C=C(C)/C=C/C2=C(C)CCCC2(C)C)C(C)(C)CCC1 [Beta-carotene, beta-carotene] . Value?
### Response 62.8 to 328000 ng/g

* * *

Assay: in vivo
Settings: cricket, 0.2 mg/kg diet, Beta-carotene in Feeder Insect, 0.2 mg/kg beta-carotene in diet
reportedMetric: concentration at 21 days (ng/g)
Answers are plain numbers, in ng/g.

### Prompt Endpoint output: concentration at 21 days of CC1=C(/C=C/C(C)=C/C=C/C(C)=C/C=C/C=C(C)/C=C/C=C(C)/C=C/C2=C(C)CCCC2(C)C)C(C)(C)CCC1 [Beta-carotene, beta-carotene] . Value?
### Response 33.3
